system: HAP1 MTAP-deleted cell line; experiment: Viability assay, MTAP-deleted cell line; assay type: cell-based; conditions: Homo sapiens, HAP1, viability IC50, MTAP-deleted cell line; read-out: HAP1 MTAP deleted viability
pIC50: −log10 of the molar value.
Property: pIC50

Examples with answers:
Cc1cc(NC(=O)C(=O)N2C[C@H](C)CC[C@H]2c2ccc(C(F)(F)F)c(Cl)c2)cnc1N (single isomer, unassigned) :: < 5.00
Cc1cc(NC(=O)C(=O)N2C[C@@H](C)CC[C@@H]2c2ccncc2)cnc1N (single isomer, unassigned) :: < 5.00
Cc1cc(NC(=O)C(=O)N2C[C@@H](C)CC[C@@H]2c2ccc(C(F)(F)F)c(Cl)c2)cnc1N (single isomer, unassigned) :: 5.00 to 6.00
Cc1cc(NC(=O)C(=O)N2C[C@@H](C)CC[C@@H]2c2cc(Cl)cc(Cl)c2)cnc1N (single isomer, unassigned) :: < 5.00
Cc1ncc(NC(=O)C(=O)N2C[C@H](C)CC[C@H]2c2ccc(F)cc2)cc1Cl (racemic) :: < 5.00
COc1ncc(NC(=O)C(=O)N2C[C@H](C)CC[C@H]2c2cnc3[nH]ncc3c2)cc1C(N)=O (single isomer, unassigned) :: 5.00 to 6.00
NC(=O)c1cncc(NC(=O)C(=O)N2C[C@H](c3cc[nH]n3)CC[C@H]2c2ccccc2)c1 (racemic) :: < 5.00
C[C@@H]1CC[C@@H](c2ccccn2)N(C(=O)C(=O)Nc2cncc(C(N)=O)c2)C1 (single isomer, unassigned) :: < 5.00

QUERY: For COc1ncc(NC(=O)C(=O)N2C[C@@H](C)CC[C@@H]2c2ccc3c(c2)CCC(=O)N3)cc1C(N)=O (single isomer, unassigned) , write its pIC50.
RESULT: < 5.00

QUERY: For Cc1cc(NC(=O)C(=O)N2C[C@H](C)CC[C@H]2[C@@H]2CCC[C@H](O)C2)cnc1N (single isomer, unassigned) , write its pIC50.
RESULT: < 5.00

QUERY: For Cc1cc(NC(=O)C(=O)N2C[C@H](C)CC[C@H]2c2ccc(S(C)(=O)=O)cc2)cnc1N (racemic) , write its pIC50.
RESULT: 5.00 to 6.00

QUERY: For Cc1cc(NC(=O)C(=O)N2C[C@H](C)CC[C@H]2c2cnc3scnc3c2)cnc1N (racemic) , write its pIC50.
RESULT: < 5.00

QUERY: For COc1ncc(NC(=O)C(=O)N2C[C@@H](C)CC[C@@H]2c2cnc3[nH]ncc3c2)cc1C(N)=O (single isomer, unassigned) , write its pIC50.
RESULT: < 5.00

* * *

biological target: PRMT5 (Homo sapiens); construct: purchased Viva (custom protein); assay: PRMT5 biochemical IC50 assay with SAM as cofactor; conditions: PRMT5, SAM as cofactor; read-out: SAM IC50
pIC50: −log10 of the molar value.
The following compounds are shown together with reported pIC50 values.

CCc1cc(NC(=O)C(=O)N2C[C@@H](C)CC[C@@H]2c2ccc(N3CCCC4(CCN(C)CC4)C3)cc2)cnc1N :: 6.30 to 7.30
COc1ncc(NC(=O)C(=O)N2C[C@@H](C)CC[C@@H]2c2ccc3nn([C@@H]4CCN(C)C4)cc3c2)cc1C(N)=O (racemic) :: 6.30 to 7.30
C[C@@H]1CC[C@@H](c2ccc(NS(C)(=O)=O)nc2)N(C(=O)C(=O)Nc2cncc(C(N)=O)c2)C1 (single isomer, unassigned) :: 6.30 to 7.30
C[C@@H]1CC[C@@H](c2ccccc2)N(C(=O)C(=O)Nc2cncc(C(N)=O)c2)[C@@H]1C (racemic) [Compound 154] :: 6.30 to 7.30

QUERY: For Cc1cc(NC(=O)C(=O)N2C[C@H](C)CC[C@@H]2c2ccnn2C)cnc1N (racemic) , write its pIC50.
RESULT: 6.30 to 7.30

QUERY: For C[C@@H]1CC[C@@H](c2ccc(-c3cncs3)cc2)N(C(=O)C(=O)Nc2cncc(C(N)=O)c2)C1 (single isomer, unassigned) , write its pIC50.
RESULT: < 6.30

* * *

target: PRMT5 (Homo sapiens, UniProt O14744); construct: purchased Viva (custom protein); assay: PRMT5 biochemical IC50 assay with SAM as cofactor; details: PRMT5, SAM as cofactor; read-out: SAM IC50
Sequence (O14744 whole entry): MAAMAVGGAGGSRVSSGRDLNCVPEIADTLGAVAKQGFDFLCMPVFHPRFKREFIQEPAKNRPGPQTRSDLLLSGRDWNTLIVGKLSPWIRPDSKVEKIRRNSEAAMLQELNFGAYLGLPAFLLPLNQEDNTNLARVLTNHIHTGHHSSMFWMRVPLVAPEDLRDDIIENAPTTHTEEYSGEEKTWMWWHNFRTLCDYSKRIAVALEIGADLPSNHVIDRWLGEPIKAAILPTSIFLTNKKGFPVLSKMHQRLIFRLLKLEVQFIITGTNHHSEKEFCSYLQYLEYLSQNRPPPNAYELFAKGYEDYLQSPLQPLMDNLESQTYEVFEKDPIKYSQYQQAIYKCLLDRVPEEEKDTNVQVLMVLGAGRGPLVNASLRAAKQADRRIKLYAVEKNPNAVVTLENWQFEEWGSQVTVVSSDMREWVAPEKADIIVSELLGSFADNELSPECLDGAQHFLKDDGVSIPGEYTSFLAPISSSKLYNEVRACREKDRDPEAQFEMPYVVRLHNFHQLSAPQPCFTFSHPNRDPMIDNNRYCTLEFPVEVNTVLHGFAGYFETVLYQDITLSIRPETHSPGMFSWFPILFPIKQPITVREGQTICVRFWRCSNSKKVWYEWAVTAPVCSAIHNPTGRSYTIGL
Sequence (Q9BQA1 whole entry partner): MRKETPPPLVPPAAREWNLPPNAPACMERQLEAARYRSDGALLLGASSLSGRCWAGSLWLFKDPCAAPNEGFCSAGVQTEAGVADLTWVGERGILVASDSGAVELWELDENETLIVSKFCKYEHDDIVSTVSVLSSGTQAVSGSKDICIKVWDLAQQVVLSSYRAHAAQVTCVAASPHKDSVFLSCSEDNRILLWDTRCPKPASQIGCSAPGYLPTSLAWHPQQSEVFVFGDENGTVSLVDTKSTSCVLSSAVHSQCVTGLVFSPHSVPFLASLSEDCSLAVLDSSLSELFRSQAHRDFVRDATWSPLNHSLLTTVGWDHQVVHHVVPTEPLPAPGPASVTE
pIC50: −log10 of the molar value.
The following molecules are shown together with reported pIC50 values.

CCc1cc(NC(=O)C(=O)N2C[C@@H](C)CC[C@@H]2c2ccc3sc([C@H]4C[C@@H](C)N(C)[C@@H](C)C4)nc3c2)cnc1N [Compound 1261] :: > 7.30
Cc1cc(NC(=O)C(=O)N2[C@H](C)CCC[C@@H]2c2ccccc2)cnc1N (single isomer, unassigned) [Compound 415] :: 6.30 to 7.30

QUERY: Look up and report measured pIC50 (PRMT5 (Homo sapiens, UniProt O14744)) for the following molecule: C[C@@H]1CC[C@@H](c2cccnc2)N(C(=O)C(=O)Nc2cncc(C(N)=O)c2)C1 (single isomer, unassigned) [Compound 106]
RESULT: > 7.30

QUERY: Look up and report measured pIC50 (PRMT5 (Homo sapiens, UniProt O14744)) for the following molecule: CCc1cc(NC(=O)C(=O)N2C[C@@H](C)CC[C@@H]2c2ccc3sc([C@@H]4[C@@H]5CN(C)C[C@@H]54)nc3c2)cnc1N [Compound 1366]
RESULT: > 7.30

QUERY: Look up and report measured pIC50 (PRMT5 (Homo sapiens, UniProt O14744)) for the following molecule: C[C@H]1CC[C@H](c2ccc3sncc3c2)N(C(=O)C(=O)Nc2cnc(N)c(C3CC3)c2)C1 (single isomer, unassigned) [Compound 1153]
RESULT: 6.30 to 7.30

QUERY: Look up and report measured pIC50 (PRMT5 (Homo sapiens, UniProt O14744)) for the following molecule: Cc1cc(NC(=O)C(=O)N2C[C@H](C)CC[C@H]2c2ccc3c(cnn3C)c2)cnc1N (racemic) [Compound 922]
RESULT: 6.30 to 7.30

* * *

The following compounds are shown together with reported IC50 values.
system: HAP1 MTAP-deleted cell line; test: Viability assay, MTAP-deleted cell line; type: cell-based; conditions: Homo sapiens, HAP1, viability IC50, MTAP-deleted cell line; read-out: HAP1 MTAP deleted viability

Cc1cc([C@@H]2CC[C@@H](C)CN2C(=O)C(=O)Nc2cncc(C(N)=O)c2)cc2cn[nH]c12 (single isomer, unassigned) :: > 10 µM
C[C@H]1CC[C@H](c2cc(Cl)cc(C(F)(F)F)c2)N(C(=O)C(=O)Nc2cncc(C(N)=O)c2)C1 (single isomer, unassigned) :: 1 to 10 µM
C[C@@H]1CC[C@@H](c2ccc(Cl)cc2)N(C(=O)C(=O)Nc2cncc(C(N)=O)c2)C1 (single isomer, unassigned) :: 1 to 10 µM
Cc1cc(NC(=O)C(=O)N2C[C@H](C)CC[C@H]2c2ccc(S(N)(=O)=O)cc2)cnc1N (racemic) :: > 10 µM
Cc1cc(NC(=O)C(=O)N2C[C@H](C)CC[C@H]2c2ccc(NS(C)(=O)=O)cc2)cnc1C (single isomer, unassigned) :: > 10 µM

QUERY: For CC(=O)Nc1ccc([C@H]2CC[C@H](C)CN2C(=O)C(=O)Nc2cncc(C(N)=O)c2)s1 (single isomer, unassigned) , write its IC50.
RESULT: > 10 µM

QUERY: For C[C@@H]1CN(C(=O)C(=O)Nc2cncc(C(N)=O)c2)C[C@H]2CCCC[C@H]21 (racemic) , write its IC50.
RESULT: > 10 µM

QUERY: For C[C@H]1CC[C@H](c2ccc(-c3cc[nH]n3)cc2)N(C(=O)C(=O)Nc2cncc(C(N)=O)c2)C1 (single isomer, unassigned) , write its IC50.
RESULT: 1 to 10 µM

QUERY: For C[C@@H]1CN(C(=O)C(=O)Nc2cncc(C(N)=O)c2)C[C@@H]2CCCC[C@@H]21 (racemic) , write its IC50.
RESULT: 1 to 10 µM

QUERY: For Cc1cc([C@H]2CC[C@H](C)CN2C(=O)C(=O)Nc2cnc(N)c(C)c2)ccn1 (single isomer, unassigned) , write its IC50.
RESULT: > 10 µM

QUERY: For Cc1cc(NC(=O)C(=O)N2C[C@H](C)CC[C@H]2C2CCN(C)CC2)cnc1N (racemic) , write its IC50.
RESULT: > 10 µM

QUERY: For CC[C@H]1CC[C@H](c2ccccc2)N(C(=O)C(=O)Nc2cncc(C(N)=O)c2)C1 (single isomer, unassigned) , write its IC50.
RESULT: 1 to 10 µM

QUERY: For Cc1cc(NC(=O)C(=O)N2C[C@@H](C)CC[C@@H]2[C@H]2CCC[C@@H](O)C2)cnc1N (single isomer, unassigned) , write its IC50.
RESULT: 1 to 10 µM

Where do the numbers come from? From patent US11999727B2.
